Please provide measured Km for the entries that follow.
Target: Amine oxidase [flavin-containing] A (Homo sapiens, UniProt P21397)
Sequence (P21397 whole entry): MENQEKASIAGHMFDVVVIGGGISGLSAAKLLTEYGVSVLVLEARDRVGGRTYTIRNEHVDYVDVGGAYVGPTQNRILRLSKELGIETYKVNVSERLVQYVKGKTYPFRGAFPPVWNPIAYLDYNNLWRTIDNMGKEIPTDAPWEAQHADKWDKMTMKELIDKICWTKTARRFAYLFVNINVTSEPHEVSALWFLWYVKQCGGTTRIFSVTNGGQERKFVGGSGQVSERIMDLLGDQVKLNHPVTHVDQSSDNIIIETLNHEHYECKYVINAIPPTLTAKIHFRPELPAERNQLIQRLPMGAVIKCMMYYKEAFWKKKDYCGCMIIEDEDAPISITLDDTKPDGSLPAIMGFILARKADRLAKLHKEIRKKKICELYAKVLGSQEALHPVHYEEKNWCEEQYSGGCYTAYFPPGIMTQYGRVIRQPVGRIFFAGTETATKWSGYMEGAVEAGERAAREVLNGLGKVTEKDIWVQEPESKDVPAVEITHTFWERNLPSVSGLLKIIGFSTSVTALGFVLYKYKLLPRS
Assay: Oxidation by human mono-amine oxidase MAO-A
Answers are plain numbers, in µM.

// solved cases for Km follow
CN1CC=C(Cc2ccccc2)CC1: 66
CN1CC=C(Cc2ccc3ccccc3c2)CC1: 36
NCCC(=O)c1ccccc1N: 170

Report measured Km; entry is `CN1CC=C(Cc2cccc3ccccc23)CC1`
167

###

Target: Amine oxidase [flavin-containing] B (Bos taurus, UniProt P56560)
Sequence (P56560 whole entry): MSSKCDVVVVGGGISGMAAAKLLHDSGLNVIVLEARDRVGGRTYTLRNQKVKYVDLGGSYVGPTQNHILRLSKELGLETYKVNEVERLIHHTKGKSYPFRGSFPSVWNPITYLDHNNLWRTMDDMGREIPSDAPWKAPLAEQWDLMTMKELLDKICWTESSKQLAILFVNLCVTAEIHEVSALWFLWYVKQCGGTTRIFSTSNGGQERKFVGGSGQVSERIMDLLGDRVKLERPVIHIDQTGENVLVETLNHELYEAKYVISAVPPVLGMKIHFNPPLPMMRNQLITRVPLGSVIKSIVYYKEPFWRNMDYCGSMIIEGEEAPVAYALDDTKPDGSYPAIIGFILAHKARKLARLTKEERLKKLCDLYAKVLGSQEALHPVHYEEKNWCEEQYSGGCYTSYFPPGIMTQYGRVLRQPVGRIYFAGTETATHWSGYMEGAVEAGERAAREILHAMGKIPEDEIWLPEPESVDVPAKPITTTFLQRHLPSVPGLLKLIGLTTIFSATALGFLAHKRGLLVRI
Experiment: Ratio of turnover to Km for bovine MAO-B
Details: cattle
Classify: y when Ratio is strictly less than 500; n when Ratio is not.

CN1CC=C(Oc2ccccc2)CC1: n
CN1CC=C(Oc2ccc(-c3ccccc3)cc2)CC1: y
CN1CC=C(Cc2cccc3ccccc23)CC1: y
CN1CC=C(c2ccccc2)CC1: n
NCc1ccccc1 [BENZYLAMINE]: n
CN1CC=C(Oc2ccc3ccccc3c2)CC1: n

Lab note: confirm whether the reported Ratio for this compound is below 500, equality not counting. compound: `CN1CC=C(Cc2ccccc2)CC1`
n

Lab note: confirm whether the reported Ratio for this compound is below 500, equality not counting. compound: `CN1CC=C(Oc2cccc3ccccc23)CC1`
n

Lab note: confirm whether the reported Ratio for this compound is below 500, equality not counting. compound: `CN1CC=C(Cc2ccc3ccccc3c2)CC1`
y

Lab note: confirm whether the reported Ratio for this compound is below 500, equality not counting. compound: `CN1CC=C(Oc2ccc(Cl)cc2Cl)CC1`
n

Lab note: confirm whether the reported Ratio for this compound is below 500, equality not counting. compound: `CN1CC=C(Oc2ccc(C(C)(C)C)cc2)CC1`
y

Lab note: confirm whether the reported Ratio for this compound is below 500, equality not counting. compound: `CCCCc1ccc(OC2=CCN(C)CC2)cc1`
n

Reference for the values: ChEMBL document CHEMBL1127689
